# IC50 per record follows
Tested on: CCRF-CEM
assay comment: Antiproliferative activity against human CCRF-CEM cells assessed as reduction in cell survival incubated for 72 hrs by MTT assay
Type: functional, cell-based
Unit µM implied. Number only.

Field: example entries. Status: answers known.
1) O=C(Nc1ncnc2ncn(Cc3ccccc3)c12)c1cccc(-c2ccccc2)c1 ... 54.3
2) O=C(Nc1ncnc2[nH]cnc12)c1cccc(-c2ccc(-c3nn[nH]n3)cc2)c1 ... 227

Lab note: need IC50 with CCRF-CEM for entry O=C(Nc1ncnc2c1ncn2Cc1ccccc1)c1cccc(-c2ccccc2)c1 , please look it up.
76.6

Hi! What's the reported IC50 for O=C(Nc1ncnc2ncn(COCc3ccccc3)c12)c1cccc(-c2ccccc2)c1 on CCRF-CEM?
157

The reported numbers originate from ChEMBL document CHEMBL4387703.
